Recorded composite z-score values for a group of compounds are listed next.
biological target: Dickkopf-related protein 1 (Homo sapiens); experiment: DKK1 binders on small-molecule microarrays, primary screen, biochemical, small-molecule microarray, 635 nm fluorescence scan (AID 1106); details: DKK1 binding, higher = more signal;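 also: score merges emission near 667 nm with signal to noise over three replicate slides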
Please state the value as a number alone, without comment.

[ask] What composite z-score value was documented for this compound, "CC(C)CON=C1C[C@@H](O)[C@@H](O)[C@@H]2[C@@H]3C(=O)N(C4CCCCC4)C(=O)[C@@H]3CC[C@H]12" ?
[reply] 0.544

[ask] Param item = CCOC(=O)[C@H](Cc1ccccc1)NC(=O)OC1CC(CCC2CC(CC)=NO2)OC2(CCCC(COC(=O)NCCC(C)C)O2)C1 (stereo partly specified) ; retrieve measured composite z-score.
[reply] 0.0585

[ask] So what does the record say about composite z-score for "COc1cccc([C@H]2Oc3ccc(OC)cc3C(=NO[C@H](C)c3cn([C@H](CO)Cc4ccccc4)nn3)[C@@H]2O)c1" ?
[reply] -0.28

[ask] Fill in the blank: the reported composite z-score of "COC(=O)[C@H]1[C@@H](O)[C@@]2(O)c3ccccc3O[C@@]2(c2ccccc2)[C@@H]1c1ccccc1" is ____.
[reply] 0.384

[ask] Would you mind telling me what composite z-score value was observed for "O=C1[C@H]2[C@H]3[C@H](O)[C@H](O)CC(=NOC[C@@H](O)COCc4ccco4)[C@@H]3CC[C@H]2C(=O)N1C[C@@H]1CCCO1" ?
[reply] 1.51

[ask] # query: composite z-score of entry "CC(C)CON=C1C[C@@H](O)[C@@H](O)[C@@H]2[C@@H]3C(=O)N(C4CCCCC4)C(=O)[C@@H]3CC[C@@H]12"
[reply] -0.607
